Test system: PfAP2-LT AP2 domain (GST-tagged)
Experiment notes: gcPBM binding intensity (ln(normalized median fluorescence intensity)); higher = stronger DNA binding
In all, about 25,000 sequences were measured (“ln(normalized median fluorescence intensity)”: median about 8.9, highest 2% from about 10 on). The entries come from a sample that favours the highest values as a whole.
Exercise: state measured gcPBM binding intensity (ln) for each of the sequences provided.
Give the figure only, with no unit attached.

AAATAACAAATTTTTAAAATGTATATATATATATAT [TGCATGCA_negctrl_site219] yielded gcPBM binding intensity (ln) of 9.51

AAAATAACGAGTCAAACACACATATATATATATATA [CACACA_site2039] yielded gcPBM binding intensity (ln) of 10.1

TTATAAAAAGAACAATTAAAAAAAAATAAAATAAAA [XGTACX_negctrl_site398] yielded gcPBM binding intensity (ln) of 8.4

AATAATAGAAGCACCCACCCACCACCACCCACACAT [CACACA_negctrl_site1033] yielded gcPBM binding intensity (ln) of 10.5

AACAACTATTAATTTACACACATGTATTTATTTTAC [CACACA_site5683] yielded gcPBM binding intensity (ln) of 9.3

ATATATATATAATTATATAAAATATATCATATGTTA [XGTACX_negctrl_site47] yielded gcPBM binding intensity (ln) of 8.53

AAAGAATACATATATTGTACATATATATATACCGTT [XGTACX_site6250] yielded gcPBM binding intensity (ln) of 9.02

ATTATAACACCTCCCCCCCTTTTTTTATGAAGACCA [CACACA_negctrl_site1043] yielded gcPBM binding intensity (ln) of 10.1

TATAAATAAAAACACACACACACATATATATATATA [CACACA_site2268] yielded gcPBM binding intensity (ln) of 10.2

TCATTTCAATACACAAGTACGTATATGGTTATATTG [XGTACX_site6021] yielded gcPBM binding intensity (ln) of 8.82

TTAATGTAGAGAAAATGTACATTTTATTAAAACAAT [XGTACX_site6376] yielded gcPBM binding intensity (ln) of 8.76

AAACATAAGAGACACACACACATATATAAATAAATA [CACACA_site7674] yielded gcPBM binding intensity (ln) of 9.79

AAAAAATAAAACATATATAATATATAATATATATAT [GTGCAC_negctrl_site447] yielded gcPBM binding intensity (ln) of 8.69

CATAAATACATACATACACACATATTTATATTTATA [CACACA_site7071] yielded gcPBM binding intensity (ln) of 9.16

ATATTTTGTTATGTAGATGTTGGTAGGAATTTTGGT [CACACA_negctrl_site1104] yielded gcPBM binding intensity (ln) of 8.83

TATATATATGGACACACACACACATATATATATATA [CACACA_site6121] yielded gcPBM binding intensity (ln) of 10.3

AATGATCATATATACACACACACAAAAAAAAAAAAA [CACACA_site4009] yielded gcPBM binding intensity (ln) of 9.6

ACATATAAATATATTACACACACACTAAAAAAATAA [CACACA_site6209] yielded gcPBM binding intensity (ln) of 9.69

AAATAAAAAAAATAAAAGCAATCATAATAAAAATCT [CACACA_negctrl_site161] yielded gcPBM binding intensity (ln) of 8.79

CAAAGGGAAATTAACACACACATATATATATATATA [CACACA_site2453] yielded gcPBM binding intensity (ln) of 10.3

TAAGTATAAATATTTACACACATTTGTTTTTTTTTA [CACACA_site7731] yielded gcPBM binding intensity (ln) of 8.78

AAAAAGAAAAAAAAATGTACATAAAGTCTAATGATA [XGTACX_site4781] yielded gcPBM binding intensity (ln) of 8.78

CAAGAAAATGGACACACACACATATATATATATATA [CACACA_site6010] yielded gcPBM binding intensity (ln) of 10.4

GTTATAGAAGCATTCACACACACACCCACATACACA [CACACA_site1465] yielded gcPBM binding intensity (ln) of 10.1

AAAGGATATAGACACACACACACATATATATATATA [CACACA_site2200] yielded gcPBM binding intensity (ln) of 10.3

TATATTATGACCACCACACACCTATACACATAACAT [CACACA_site7199] yielded gcPBM binding intensity (ln) of 9.45

AAAGGATATGGACACACACACACATATATATATATA [CACACA_site8686] yielded gcPBM binding intensity (ln) of 10.5

AAAATAACGAGTCAAACACACATATTTATATTTATA [CACACA_site7050] yielded gcPBM binding intensity (ln) of 8.95

TATATGTAAATGGACACACACATATATATATATATA [CACACA_site3659] yielded gcPBM binding intensity (ln) of 10

TATTAATTATATTTATGTACATAATCATATTATTAT [XGTACX_site7938] yielded gcPBM binding intensity (ln) of 8.94

AAAAAAAAAAAAAAGACACACATATATATATATATA [CACACA_site633] yielded gcPBM binding intensity (ln) of 10.1

AATAAATATAAATAAATAAATATATATATATATTTG [CACACA_negctrl_site1486] yielded gcPBM binding intensity (ln) of 8.56

TATTTGTAAATCGATACACACATATAGATTAATATA [CACACA_site6237] yielded gcPBM binding intensity (ln) of 8.88

TATATATATGGACACACACACATATAAATAAATAAA [CACACA_site4406] yielded gcPBM binding intensity (ln) of 9.71

TAATAAATAAGACACACACACATATATATATATTAT [CACACA_site1389] yielded gcPBM binding intensity (ln) of 9.8

AACATTATAAGACACACACACACATATATATATATA [CACACA_site8259] yielded gcPBM binding intensity (ln) of 10.3

AACTTTTAGAAGAACACACACATATAGATTATGACC [CACACA_site6256] yielded gcPBM binding intensity (ln) of 9.24

TTCAAAGGGAAATTAACACACACATATATATATATA [CACACA_site8777] yielded gcPBM binding intensity (ln) of 9.71

All values here come from the supplement of paper PMC11417369.
